Tested on: Streptococcus pneumoniae 1175
Format: cell-based
particulars: Streptococcus pneumoniae 1175; microtiter broth dilution
In this section, each of the compounds is paired with its reported MIC S. pneumo. 1175.
measurement.type: MIC S. pneumo. 1175

compound	result
CCCC(c1ccnc2ccccc12)N1CC(N2C(=O)OC3(C)C(CC)OC(=O)C(C)C(=O)C(C)C(OC4OC(C)CC(N(C)C)C4O)C(C)(OC)CC(C)C(=O)C(C)C23)C1 (centres unmarked) [Example 1.64]	<0.06 µg/mL
CC[C@H]1OC(=O)[C@H](C)[C@@H](OC(=O)N2CCCC2c2cccc(F)c2)[C@H](C)[C@@H](O[C@@H]2O[C@H](C)C[C@H](N(C)C)[C@H]2O)[C@](C)(OC)C[C@@H](C)C(=O)[C@H](C)[C@H]2N(CC3CN(Cc4c[nH]c5ncccc45)C3)C(=O)O[C@]12C (some centres unmarked) [Example 5.06]	<0.06 µg/mL
CCC1OC(=O)C(C)C(=O)C(C)C(OC2OC(C)CC(N(C)C)C2O)C(C)(OC)CC(C)C(=O)C(C)C2N(C3CN(Cc4cccc(-c5cnco5)c4)C3)C(=O)OC12C (centres unmarked)	<0.06 µg/mL
CC[C@H]1OC(=O)[C@H](C)C(=O)[C@H](C)[C@@H](O[C@@H]2O[C@H](C)C[C@H](N(C)C)[C@H]2O)[C@](C)(OC)C[C@@H](C)C(=O)[C@H](C)[C@H]2N(C3CN(Cc4ccnc5c(C#N)cccc45)C3)C(=O)O[C@]12C	<0.063 µg/mL
CCC1OC(=O)C(C)C(=O)C(C)C(OC2OC(C)CC(N(C)C)C2O)C(C)(OC)CC(C)C(=O)C(C)C2N(C3CN(S(=O)(=O)c4ccc5cnsc5c4)C3)C(=O)OC12C (centres unmarked)	<0.063 µg/mL

====

System: Streptococcus pneumoniae 1095
Format: cell-based
particulars: S. pneumoniae 1095 (ermB); microtiter broth dilution
MIC S. pneumo. 1095 for assorted molecules

molecule	MIC S. pneumo. 1095
CCC1OC(=O)C(C)C(=O)C(C)C(OC2OC(C)CC(N(C)C)C2O)C(C)(OC)CC(C)C(=O)C(C)C2N(CC3CCN(Cc4ccnc5ccccc45)CC3)C(=O)OC12C (stereo not drawn)	>64.00 µg/mL
CCC1OC(=O)C(C)C(=O)C(C)C(OC2OC(C)CC(N(C)C)C2O)C(C)(OC)CC(C)C(=O)C(C)C2N(CC3CCN(Cc4ccc(OC)nc4)CC3)C(=O)OC12C (stereo not drawn)	>64.00 µg/mL
CCC1OC(=O)C(C)C(=O)C(C)C(OC2OC(C)CC(N(C)C)C2O)C(C)(OC)CC(C)C(=O)C(C)C2N(CC3CCN(C(=O)c4cncc5ccccc45)C3)C(=O)OC12C (stereo not drawn)	>64.00 µg/mL

====

System: Streptococcus pneumoniae 1175
Type: cell-based
particulars: Streptococcus pneumoniae 1175; microtiter broth dilution

compound	MIC S. pneumo. 1175
CCC1OC(=O)C(C)C(=O)C(C)C(OC2OC(C)CC(N(C)C)C2O)C(C)(OC)CC(C)C(=O)C(C)C2N(C3CN(S(=O)(=O)c4cncc(-n5cccn5)c4)C3)C(=O)OC12C (stereo not drawn)	<0.06 µg/mL
CCC1OC(=O)C(C)C(=O)C(C)C(OC2OC(C)CC(N(C)C)C2O)C(C)(OC)CC(C)C(=O)C(C)C2N(CC3CN(C(=O)c4cccc5ncoc45)C3)C(=O)OC12C.O=CO (stereo not drawn)	<0.06 µg/mL
CCC1OC(=O)C(C)C(=O)C(C)C(OC2OC(C)CC(N(C)C)C2O)C(C)(OC)CC(C)C(=O)C(C)C2N(C3CN(S(=O)(=O)c4ccc(-c5ccon5)s4)C3)C(=O)OC12C (stereo not drawn)	<0.06 µg/mL
